All values here come from ChEMBL document CHEMBL4513216.

# PROTOCOL_DESCRIPTION: Toxicity liver stage against HepG2, at 10uM
# Assay type: cell-based
# Set-up: test concentration 10 uM, cell line HepG2-A16-CD81EGFP
# EXPERIMENTAL_PARAMETERS: human, HepG2-A16-CD81EGFP cells; read-out: INHIBITION
ENDPOINT: cytotoxicity at 10 µM (%)
Value expressed in %; do not type the unit.

>>> print(df.to_string())
                                   molecule  measure_unit  reported_result
0  CNC(=O)C1(CCCc2ccccn2)CCN1Cc1coc(C)n1 (configuration not stated)             %             19.7
1  Cc1cnn(CC2CN(CC(=O)N(C)Cc3cnn(C)c3)CCO2)c1 (configuration not stated)             %            -18.4

Query string: Quick one: cytotoxicity at 10 µM of "CCn1ccnc1SCCn1cnc2ccsc2c1=O" ?
Result string: -2.9

Query string: Quick one: cytotoxicity at 10 µM of "Cc1ccc(C#N)c(N2CCC(c3nccn3CCN(C)C)CC2)n1" ?
Result string: -5.47

Query string: Quick one: cytotoxicity at 10 µM of "CC1CCN(C(=O)CN2CC(c3nc(C4CC4)no3)C2)CC1" ?
Result string: -6.6

Query string: Quick one: cytotoxicity at 10 µM of "CCCn1nccc1NC(=O)CN1CCc2c(nc(C3CC3)n2C)C1" ?
Result string: 3.58

Query string: Quick one: cytotoxicity at 10 µM of "O=C(NC1(c2cccc(F)c2)CCOCC1)c1ccoc1" ?
Result string: -9.41
